Source: paper PMC7587356

- TARGET_ENTITY: SARS-CoV-2 3CLpro (Severe acute respiratory syndrome coronavirus 2)
- PROTOCOL: biochemical
- Format: biochemical
- RUN_PARAMETERS: 4 h, sheet LOPAC_screen_w_protease; LOPAC1280 primary screen with protease, 5 µM compound; replicate 2; read-out: Replicate_2
Structures can show the parent of a compound that is named as a salt.
Rule: inhibition at 5 µM under 5% gives condition not met, otherwise condition met.

Please review the following examples before continuing.
{"columns": ["COMPOUND", "CAT"],
 "data": [
  ["COc1cc(NS(C)(=O)=O)ccc1Nc1c2ccccc2nc2ccccc12 [Amsacrine hydrochloride]", "condition not met"],
  ["Cc1ccccc1N1C(=O)c2cc(S(N)(=O)=O)c(Cl)cc2NC1C (centres unmarked)", "condition met"],
  ["C=C/C(C)=C/[C@@]1(C)SC(=O)C(C)=C1O", "condition met"]
]}

Here's the next entry for you.
API: above_or_equal(metric=inhibition at 5 µM, cutoff=5%) for item CN(C)S(=O)(=O)c1ccc2c(c1)/C(=C/c1cc3c([nH]1)CCCC3)C(=O)N2 condition met

----------
- TARGET_ENTITY: SARS-CoV-2 3CLpro (Severe acute respiratory syndrome coronavirus 2, UniProt P0DTD1)
- PROTOCOL: biochemical
- Assay type: biochemical
- Parameters: unit not given here
Binary call on mean with cut-off 3: strictly below means true (1), and equality or higher means false (0).

Here's what some known entries look like.
{"columns": ["COMPOUND", "CAT"],
 "data": [
  ["C=CC[N+](C)(C)c1ccc(CCC(=O)CCc2ccc([N+](C)(C)CC=C)cc2)cc1.[Br-].[Br-] [BW 284c51]", "true (1)"],
  ["C1CNCCN1.COc1cc(C(O)CO)ccc1O.COc1cc(C(O)CO)ccc1O (centres unmarked) [MHPG piperazine]", "false (0)"]
]}

Dear colleague, could you confirm whether mean of O=C(O)/C(=C/c1c(C(=O)O)[nH]c2cc(Cl)cc(Cl)c12)c1ccccc1 [MDL 105,519] falls below 3? Thanks. false (0)

# check: mean < 3 for NC1CCN(O)C1=O (racemic) [(±)-HA-966] true (1)

Dear reviewer, please state whether COc1cc(CC(C)N)c(OC)cc1I.Cl (racemic) [(±)-DOI hydrochloride] has mean strictly beneath 3. false (0)

Quick check: does COc1ccc2c(c1)[C@@]13CCCC[C@H]1[C@@H](C2)NCC3.Cl [3-Methoxy-morphanin hydrochloride] have mean under 3? false (0)

Lab log: compare recorded mean with 3; is it strictly lower for CC(C)NCC(O)COc1cccc2ccccc12.Cl (racemic) [(±)-Propranolol hydrochloride] ? false (0)

----------
Please go through the items and note down their inhibition at 5 µM.
- TARGET_ENTITY: SARS-CoV-2 3CLpro (Severe acute respiratory syndrome coronavirus 2, UniProt P0DTD1)
- PROTOCOL: biochemical
- Type: biochemical
- RUN_PARAMETERS: 4 h, sheet LOPAC_screen_w_protease; primary screen with protease, 5 µM; mean of two replicates; read-out: mean
Counter-ions that a name gives are not always drawn.
Give bare numbers, in %.

See these solved cases before continuing.
{"columns": ["COMPOUND", "inhibition at 5 µM [%]"],
 "data": [
  ["C[N+](C)(C)CCCCCC[N+](C)(C)C [Hexamethonium bromide]", 0.248],
  ["CCCCCC(O)c1cccc(OCc2ccc3ccccc3n2)c1 (stereo not drawn)", 0.337],
  ["COc1ccccc1N1CCN(CCCNc2cc(=O)n(C)c(=O)n2C)CC1 [Urapidil hydrochloride]", -0.372],
  ["O=C(O)c1nn(Cc2ccc(Cl)cc2Cl)c2ccccc12", 0.331],
  ["CN(C)CCC(c1ccccc1)c1ccccn1 (stereo not drawn) [Pheniramine maleate]", -0.749]
]}

Would you mind listing inhibition at 5 µM for each of the following compounds?
1. C[N+]1(C)[C@@H]2CC[C@H]1C[C@@H](OC(=O)C(CO)c1ccccc1)C2 (stereo partly drawn) [Atropine methyl nitrate]
2. Cc1ccc(N(CC2=NCCN2)c2cccc(O)c2)cc1 [Phentolamine mesylate]
3. CCCCCCCCCCCCC/C=C/[C@@H](O)[C@@H](N)CO
4. O=C(O)c1ccccc1Nc1ccccc1

1. -0.0687
2. -0.0499
3. -0.887
4. 0.157

----------
- TARGET_ENTITY: SARS-CoV-2 3CLpro (Severe acute respiratory syndrome coronavirus 2, UniProt P0DTD1)
- PROTOCOL: biochemical
- Assay type: biochemical
- RUN_PARAMETERS: 4 h, sheet LOPAC_screen_w_protease; primary screen of LOPAC1280 at 5 µM with protease; replicate 1; read-out: Replicate_1
Where a name gives a salt, the structure may show the parent alone.
Could you please report measured inhibition at 5 µM for the items listed next?

{"columns": ["MOLECULE", "inhibition at 5 µM"],
 "data": [
  ["CC1=C[C@@H]2c3cccc4[nH]cc(c34)C[C@H]2N(C)C1 [Agroclavine]", "3.6%"],
  ["O=C1NC(c2cccc([N+](=O)[O-])c2)=CCN1c1ccccc1O [Icilin]", "4.52%"]
]}

Field request: inhibition at 5 µM | item: COc1ccc(OC)c(C(O)C(C)N)c1 (stereo not drawn) [Methoxamine hydrochloride] 2.74%

----------
- TARGET_ENTITY: SARS-CoV-2 3CLpro (Severe acute respiratory syndrome coronavirus 2, UniProt P0DTD1)
- PROTOCOL: biochemical
- Assay type: biochemical
- Design: unit not given here
- RUN_PARAMETERS: LOPAC1280 primary screen with protease, 5 µM compound, mean of two replicates
Structures can show the parent of a compound that is named as a salt.
Would you mind telling me the reported mean (LOPAC_screen_w_protease) of each entry?
One number for each entry.

{"columns": ["COMPOUND", "TARGET_ENTITY", "mean (LOPAC_screen_w_protease)"],
 "data": [
  ["Nc1nc(Cl)nc2c1ncn2[C@@H]1O[C@H](CO)[C@@H](O)[C@H]1O", "SARS-CoV-2 3CLpro (Severe acute respiratory syndrome coronavirus 2, UniProt P0DTD1)", 1.409]
]}

Hi there! I need mean (LOPAC_screen_w_protease) for each item below, if you can.
1. CN(C)CCC=C1c2ccccc2COc2ccccc21 [Doxepin hydrochloride]
2. O=C(Nc1ccccc1)c1cc([N+](=O)[O-])ccc1Cl
3. Nc1nnc(-c2cccc(Cl)c2Cl)c(N)n1
4. CP(=O)(O)CCCN.Cl [SKF 97541 hydrochloride]

1. 1.543
2. 1.573
3. 1.603
4. 1.5203

----------
- TARGET_ENTITY: SARS-CoV-2 3CLpro (Severe acute respiratory syndrome coronavirus 2, UniProt P0DTD1)
- PROTOCOL: biochemical
- Assay type: biochemical
- Set-up: unit not given here
- RUN_PARAMETERS: sheet LOPAC_screen_w_protease; primary screen with protease, 5 µM; replicate 1
MEASURED_QUANTITY: Replicate_1
Answers are plain numbers.

{"columns": ["MOLECULE", "Replicate_1"],
 "data": [
  ["CC(C)NCC(O)COc1cccc2[nH]ccc12 (stereo not drawn) [S(-)-Pindolol]", 1.799]
]}

List Replicate_1 for every entry below, keeping the order given.
1. Cl.O=c1[nH]oc2c1CCNC2 [THIP hydrochloride]
2. CS(=O)(=O)O.Cc1c(C(=O)c2cccc3ccccc23)c2cccc3c2n1[C@H](CN1CCOCC1)CO3 [(R)-(+)-WIN 55,212-2 mesylate]
3. Clc1ccc(C(c2ccccc2Cl)C(Cl)Cl)cc1 (stereo not shown)
4. C[C@]12C=CC(=O)C=C1CC[C@@H]1C2=CC[C@]2(C)[C@@H](C(=O)CN3CCN(c4cc(N5CCCC5)nc(N5CCCC5)n4)CC3)CC[C@@H]12.O=C(O)/C=C\C(=O)O [U-74389G maleate]
5. CC(C)=CCC/C(C)=C/CC/C(C)=C/CSc1ccccc1C(=O)O [Farnesylthiosalicylic acid]
6. Cl.Nc1cc(Cl)c(N=C2NCCN2)c(Cl)c1 [p-Aminoclonidine hydrochloride]

1. -0.552
2. -0.3938
3. 0.8298
4. -0.4551
5. 1.928
6. 0.5913

Could you tell me Replicate_1 for each of these molecules? They are listed below.
1. CP(=O)(O)C1=CCNCC1 [TPMPA]
2. C=CC(N)CCC(=O)O (racemic) [(±)-gamma-Vinyl GABA]

[-0.09904, -0.2758]

Could you tell me Replicate_1 for each of these molecules? They are listed below.
1. C[C@]12CCC(=O)C(O)=C1CC[C@@H]1[C@@H]2CC[C@]2(C)C(=O)CC[C@@H]12 [4-Androsten-4-ol-3,17-dione]
2. C[C@H]1C[C@H]2[C@@H]3CCC4=CC(=O)C=C[C@]4(C)[C@@]3(Cl)[C@@H](O)C[C@]2(C)[C@@]1(O)C(=O)CO [Beclomethasone]
3. Cl.NCCNC(=O)c1ncsc1-c1cccc(F)c1 [Ro 41-1049 hydrochloride]
4. CC(C)C[C@H](NP(=O)([O-])O[C@H]1O[C@H](C)[C@@H](O)[C@H](O)[C@@H]1O)C(=O)N[C@@H](Cc1c[nH]c2ccccc12)C(=O)[O-].[Na+].[Na+] [Phosphoramidon disodium]
5. Cc1nc(N=Nc2ccc(S(=O)(=O)O)cc2S(=O)(=O)O)c(COP(=O)(O)O)c(C=O)c1O [PPADS]
6. O=C(O)Cc1c[nH]c2ccc(O)cc12 [5-Hydroxyindolacetic acid]

1. 1.5144
2. -0.1957
3. 1.896
4. 0.5227
5. -0.6012
6. 1.641

Could you tell me which Replicate_1 is on file for Cc1cc(NC(=O)Nc2ccc3c(ccn3C)c2)sn1 [SB 204741] ? 0.3793
